Experiment: chemical genetic growth profiling, strain panel (AID 1159580);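 further: tested at 20 µM; growth read once vehicle control cultures reached saturation at 30 °C; 1 = growth at the plate median or of vehicle wells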
Assay Conditions: S. cerevisiae deletion strains, growth OD, locus YLR258W, strain gsy2, hits give low values
The whole screen tested about 5,500 compounds, of which about 2,000 (36%) were called active. Inconclusive results (about 18%) are left out. This is one part of the list.
Property Measured: normalized growth
No unit in the answer, only the number.

For orientation, consider the following solved cases.
# Molecule, normalized growth
data = [
    ("CCCc1nc(C(C)(C)O)c(C(=O)OCc2oc(=O)oc2C)n1Cc1ccc(-c2ccccc2-c2nn[nH]n2)cc1", 0.977),
    ("CCCCC(=O)N(Cc1ccc(-c2ccccc2-c2nn[nH]n2)cc1)[C@H](C(=O)O)C(C)C", 0.989),
    ("O=c1ccc2cc(O[C@@H]3O[C@H](CO)[C@@H](O)[C@H](O)[C@H]3O)c(O)cc2o1", 0.973),
    ("CCS(=O)(=O)CCn1c([N+](=O)[O-])cnc1C", 1.01),
    ("COc1ccc2ccc(=O)oc2c1CC=C(C)C", 0.848),
]

Record CC(C(=O)O)c1ccc(N2Cc3ccccc3C2=O)cc1 (stereo not drawn) , field normalized growth: 0.976

---

Experiment: chemical genetic growth profiling, strain panel (AID 1159580)
Assay Conditions: S. cerevisiae deletion strains, growth OD, locus YPL078C, strain atp4
The whole screen tested about 5,500 compounds, of which about 2,000 (36%) were called active. Another 18% or so got no clear call; they are omitted. No stated cut-off is given here; in the data, active means normalized growth mostly below about 0.91 (no sharp cut-off); inconclusive means no clear call, values can overlap the other calls; inactive means mostly above about 0.92. The list shows a part of the results.
Field 'call' accepts active, inactive

For orientation, consider the following solved cases.
# Molecule, Class Name
data = [
    ("O=C1c2ccccc2C(=O)c2c(O)c(O)cc(O)c21", "active"),
    ("O=C(O)c1cc2cc(Cl)ccc2[nH]1", "inactive"),
]

Ask: Just curious, what result did `FC(F)(F)COCC(F)(F)F` get here?
Reply: inactive

Ask: Just curious, what result did `Cn1c(=O)[nH]c(=O)c2[nH]cnc21` get here?
Reply: inactive

Ask: Just curious, what result did C[N+]1(C)CCc2cc3c(cc2[C@H]1C1OC(=O)c2c1ccc1c2OCO1)OCO3 (some centres not stated) get here?
Reply: inactive

Ask: Just curious, what result did `CCS(=O)(=O)CCn1c([N+](=O)[O-])cnc1C` get here?
Reply: inactive

Ask: Just curious, what result did `O=C(O)c1cccc(O)c1O` get here?
Reply: inactive

Ask: Just curious, what result did `COc1ccc2[nH]cc(CCNC(C)=O)c2c1` get here?
Reply: inactive

Ask: Just curious, what result did `Cc1c(N(C)CS(=O)(=O)O)c(=O)n(-c2ccccc2)n1C` get here?
Reply: inactive

Ask: Just curious, what result did `COc1ccc2c(=O)c(-c3cc4c(cc3OC)OCO4)coc2c1` get here?
Reply: inactive

Ask: Just curious, what result did `Cn1cnc([N+](=O)[O-])c1Sc1ncnc2nc[nH]c12` get here?
Reply: inactive

Ask: Just curious, what result did `O=C1c2ccccc2C(=O)c2c1ccc(O)c2O` get here?
Reply: active

Ask: Just curious, what result did `O=c1ccc2ccc(O)c(O)c2o1` get here?
Reply: inactive

Ask: Just curious, what result did `COc1cc2c(cc1-c1coc3c4c(c(OC)cc3c1=O)OC(C)(C)C=C4)OCO2` get here?
Reply: inactive

Ask: Just curious, what result did `O=C1c2ccccc2-c2cccc3cccc1c23` get here?
Reply: active

Ask: Just curious, what result did `COc1c2occc2cc2ccc(=O)oc12` get here?
Reply: inactive

Ask: Just curious, what result did `Cc1cc(O)c2c(c1O)C(=O)c1c(O)cc(C)c(O)c1C2=O` get here?
Reply: inactive

Ask: Just curious, what result did CCOc1nc2cccc(C(=O)OC(C)OC(=O)OC3CCCCC3)c2n1Cc1ccc(-c2ccccc2-c2nn[nH]n2)cc1 (configuration not stated) get here?
Reply: inactive

Ask: Just curious, what result did `O=C(O)CCCN1C(=O)c2cccc3cccc(c23)C1=O` get here?
Reply: inactive

Ask: Just curious, what result did `CC(C)=CCc1c(O)cc2occ(-c3ccc4c(c3)OCO4)c(=O)c2c1O` get here?
Reply: inactive

Ask: Just curious, what result did COC(=O)C[C@H]1C(C)(C)[C@@H](OC(C)=O)[C@@H]2CC3C4CC(=O)O[C@@H](c5ccoc5)[C@]4(C)CCC3[C@@]1(C)C2=O (some centres not stated) get here?
Reply: inactive

Ask: Just curious, what result did `Cc1ncc([N+](=O)[O-])n1CCO` get here?
Reply: inactive

---

Experiment: chemical genetic growth profiling, strain panel (AID 1159580)
Assay Conditions: S. cerevisiae deletion strains, growth OD, locus YDL017W, strain CDC7, hits give low values
The campaign covered roughly 5,500 compounds. About 2,000 (36%) were called active. Another 18% or so got no clear call; they are omitted. The list shows a part of the results.
We begin with a simple list: items and their reported normalized growth.
No unit in the answer, only the number.

For orientation, consider the following solved cases.
# Molecule, normalized growth
data = [
    ("Cc1c(C(=O)NCCNc2ccc(C(F)(F)F)cc2[N+](=O)[O-])cnn1-c1ccc(F)cc1", 0.982),
    ("O=C(OCc1ccc(Oc2ccc(Cl)cc2Cl)c([N+](=O)[O-])c1)c1ccc([N+](=O)[O-])o1", 0.979),
    ("CC(=O)Oc1ccc2c(=O)c(Oc3ccc(Cl)cc3)c(C)oc2c1", 0.963),
    ("Nc1ccccc1C(=O)N/N=C\\c1cc(Cl)cc(Cl)c1O", 0.963),
    ("Cc1oc(-c2ccc(Cl)cc2)cc1C(=O)N1CCN(c2ccc(C(F)(F)F)cn2)CC1", 0.978),
    ("Cc1nn(Cc2cccc(C(=O)O/N=C(/N)c3ccc(Cl)cc3)c2)c(C)c1Br", 0.974),
    ("Cc1nc([N+](=O)[O-])cn1CC(=O)c1ccc(Cl)cc1", 0.981),
    ("COC(=O)c1ccc(Oc2c(C(F)(F)F)oc3cc(O)ccc3c2=O)cc1", 0.977),
]

Record CC(Oc1ccc(Cl)cc1Cl)C(=O)NNC(=S)Nc1ccccc1 (stereo not drawn) , field normalized growth: 0.986

---

Experiment: chemical genetic growth profiling, strain panel (AID 1159580);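 further: tested at 20 µM; growth read once vehicle control cultures reached saturation at 30 °C; 1 = growth at the plate median or of vehicle wells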
Assay Conditions: S. cerevisiae deletion strains, growth OD, locus YER155C, strain BEM2 (second series), hits give low values
Among all 5,500 compounds or so, about 2,000 (36%) were called active. Inconclusive results (about 18%) are left out. The list shows a part of the results.
We begin with a simple list: items and their reported normalized growth.
No unit in the answer, only the number.

# Molecule, Property Measured, Measurement
data = [
    ("CCCC(=O)Nc1ncnc2c1ncn2C1O[C@@H]2COP(=O)(O)O[C@H]2[C@H]1OC(=O)CCC (stereo partly specified)", "normalized growth", 1.01),
]

Record `Nc1ncnc2c1ncn2[C@@H]1O[C@H](CO)[C@@H](O)[C@@H]1O` , field normalized growth: 1.02

Record `NCCS` , field normalized growth: 0.982

Record `N#Cc1ccc2c(c1)N(CCCN1CCC(O)CC1)c1ccccc1S2` , field normalized growth: 0.912

Record `COP(=S)(OC)SCn1nnc2ccccc2c1=O` , field normalized growth: 0.999

Record COC(=O)C[C@H]1C(C)(C)[C@@H](OC(C)=O)[C@@H]2CC3C4CC(=O)O[C@@H](c5ccoc5)[C@]4(C)CCC3[C@@]1(C)C2=O (stereo partly specified) , field normalized growth: 1.03

---

Experiment: chemical genetic growth profiling, strain panel (AID 1159580);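 further: tested at 20 µM; growth read once vehicle control cultures reached saturation at 30 °C; 1 = growth at the plate median or of vehicle wells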
Assay Conditions: S. cerevisiae deletion strains, growth OD, locus YJL115W, strain asf1
Out of some 5,500 compounds screened, about 2,000 (36%) were called active. About 18% were inconclusive and are not listed. Rule as the data show it: active = normalized growth mostly below about 0.91 (no sharp cut-off); inconclusive = no clear call, values can overlap the other calls; inactive = mostly above about 0.92. Some of the results follow.
Field 'call' accepts 1 (yes) = active, 0 (no) = inactive

For orientation, consider the following solved cases.
# Molecule, Class Name
records = [
    ("c1ccc2c(c1)[nH]c1cnccc12", "0 (no)"),
    ("C[C@]12C=CC(=O)C=C1CCC1C2CC[C@]2(C)C(=O)CCC12 (stereo partly specified)", "0 (no)"),
    ("COc1cc(O)c(C(C)=O)c(OC)c1", "0 (no)"),
    ("C[N+]1(C)CCc2cc3c(cc2[C@H]1C1OC(=O)c2c1ccc1c2OCO1)OCO3 (stereo partly specified)", "0 (no)"),
    ("COc1ccc2c(=O)c(CC(=O)O)coc2c1", "0 (no)"),
]

Please examine the following record next.
Ask: Just curious, what result did `COc1cc2ccc(=O)oc2c2ccoc12` get here?
Reply: 1 (yes)

---

Experiment: chemical genetic growth profiling, strain panel (AID 1159580);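 further: tested at 20 µM; growth read once vehicle control cultures reached saturation at 30 °C; 1 = growth at the plate median or of vehicle wells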
Assay Conditions: S. cerevisiae deletion strains, growth OD, locus YER123W, strain YCK3, hits give low values
Screen size: about 5,500 compounds; about 2,000 (36%) were called active. About 18% were inconclusive and are not listed. Some of the results follow.
Y if normalized growth is below 0.9. N if not; exact matches included in N.

For orientation, consider the following solved cases.
# Compound, Class Name
records = [
    ("N#CC(C#N)=NNc1ccc(C(F)(F)F)cc1", "Y"),
    ("O=S(=O)(Nc1cc(-c2cccs2)nn1-c1ccc(I)cc1)c1cccc(F)c1", "N"),
    ("Fc1ccc(Nc2nc(-c3ccc(F)c(F)c3)cs2)c(F)c1", "Y"),
    ("CSC(SC)=C(C#N)C(=O)c1ccccc1Cl", "Y"),
]

Ask: Is it true that normalized growth reported for `N#Cc1c(N)sc2c1CCc1ccccc1-2` is less than 0.9?
Reply: Y

Ask: Is it true that normalized growth reported for `COc1cc(OC)cc(/C(N)=N\O)c1` is less than 0.9?
Reply: N

Ask: Is it true that normalized growth reported for `CSc1nc(Sc2n[nH]c(-c3ccccc3)n2)cc(Sc2n[nH]c(-c3ccccc3)n2)n1` is less than 0.9?
Reply: N

Ask: Is it true that normalized growth reported for `N#C/C(=C\c1ccc(C(F)(F)F)cc1)c1ccc(O)cc1` is less than 0.9?
Reply: Y

Ask: Is it true that normalized growth reported for CCOC(=O)C(O)(c1ccc(NC(=O)Nc2ccc(Cl)cc2)cc1)C(F)(F)F (configuration not stated) is less than 0.9?
Reply: N

Ask: Is it true that normalized growth reported for `CCCCCc1ccc(-c2nc(SCC(C)=O)n[nH]2)cc1` is less than 0.9?
Reply: Y

Ask: Is it true that normalized growth reported for `O=C(O)c1cccc2cccc(C(=O)O)c12` is less than 0.9?
Reply: Y
